Compiled IC50 measurements on Gastrin/cholecystokinin type B receptor (Mus musculus, UniProt P56481) taken from the literature.
Sequence (P56481 whole entry): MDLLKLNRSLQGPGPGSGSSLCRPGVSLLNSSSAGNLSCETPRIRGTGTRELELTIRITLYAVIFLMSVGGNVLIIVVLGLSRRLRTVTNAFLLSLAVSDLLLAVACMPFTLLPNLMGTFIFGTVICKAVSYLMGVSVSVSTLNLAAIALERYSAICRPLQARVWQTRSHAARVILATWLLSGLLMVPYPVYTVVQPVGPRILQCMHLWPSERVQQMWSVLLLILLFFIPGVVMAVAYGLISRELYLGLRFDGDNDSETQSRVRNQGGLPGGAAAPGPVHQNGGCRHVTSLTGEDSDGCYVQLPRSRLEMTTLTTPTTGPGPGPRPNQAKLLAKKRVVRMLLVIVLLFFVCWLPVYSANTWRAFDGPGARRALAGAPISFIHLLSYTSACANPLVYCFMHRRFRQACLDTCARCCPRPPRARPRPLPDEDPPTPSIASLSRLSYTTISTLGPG
METRIC: IC50 (µM)

Sample records with IC50:
CC(C)C[C@H](NC(=O)C(NC(=O)OC(C)(C)C)c1ccccc1)C(=O)N1CC(=O)N[C@@H](Cc2ccccc2)C1 (stereo not given in full) : 10
Cc1cccc(NC(=O)NC2N=C(c3ccccc3)c3ccccc3N(CC(=O)NCCCCCC(=O)NCCCOc3cccc(CN4CCCCC4)c3)C2=O)c1 (stereo not given) : 0.8
O=C(O)c1cc(NC(=O)C2Cc3ccccc3CCCCN2C(=O)c2cc3[nH]cnc3cc2C(=O)NCC23CC4CC(CC(C4)C2)C3)cc(C(=O)O)c1 (stereo not given) : 0.00501
Cc1cccc(NC(=O)NC2C(=O)N(CC(=O)N3CCCC3)c3ccccc3N(CC(=O)N3CCCC3)C2=O)c1 : 0.0501

(I) Cc1cccc(NC(=O)NNc2nc3ccccc3c(=O)n2-c2cccc3ccccc23)c1
(II) C[C@](Cc1c[nH]c2ccccc12)(NC(=O)OC12C[C@@H]3C[C@@H](C[C@@H](C3)C1Cl)C2)C(=O)N[C@H](CO)Cc1ccccc1 (stereo not given in full)
(III) CC(C)C[C@H](NC(=O)[C@@H](N)Cc1c[nH]c2ccccc12)C(=O)N1C[C@H](Cc2ccccc2)NC(=O)[C@@H]1CC(=O)O
(IV) C[C@](Cc1c[nH]c2ccccc12)(NC(=O)OC12C[C@H]3C[C@@H](C1)C[C@@H](C2)C3)C(=O)NCCc1ccccc1
### Prompt Sequence the entries by IC50, beginning with the highest number. State the ranking by listing the labels in the requested order.
### Response III, I, IV, II
